Test system: OVCAR-5 ovarian
assay: NCI tumour cell line growth inhibition, 48 h
assay readout: TGI

Illustrative cases are given below, each with its answer.
| compound | result |
| --- | --- |
| NCCCCN(Cc1nc2ccccc2[nH]1)[C@H]1CCCc2cccnc21 | > 100 µM |
| C1=NCCNCCN=Cc2ccccc2OCc2cccc(n2)COc2ccccc21 | > 100 µM |
| COc1cc(C2c3cc4c(cc3OC(NCc3ccccc3)C2C)OCO4)cc(OC)c1OC (stereo not drawn) | > 100 µM |
| N/C(COc1ccc(Cl)cc1)=N\NC(=O)c1ccncc1 | > 100 µM |

Count: 6. Required value per item: TGI.
1. COc1ccc(/C=C2\CN(C)CC3C2=NC(=S)NC3c2ccc(OC)cc2)cc1 (stereo not drawn)
2. CC1=NN(C(=O)c2ccc(Cl)cc2)C(=O)/C1=C/c1ccc(O)cc1
3. CC(C)c1ccc2[nH]c(O)c(C3=Nc4ccccc4C3=O)c2c1
4. Clc1ccc(-c2nc3ccc(C45CC6CC(CC(C6)C4)C5)cc3[nH]2)cc1
5. O/N=C1\CCc2cc3c(cc21)CCC3
6. CN(C)/C=C/c1ccncc1

A:
> 86 µM
> 100 µM
> 100 µM
> 100 µM
> 100 µM
> 100 µM

Count: 4. Required value per item: TGI.
1. O=C(NCCN1CCCC1)c1cn2c(ccc3sc4ccccc4c(=O)c32)n1
2. COC(=O)C1(C)CCCC2(C)C3CCC4CC3(C=C4CO)CCC12 (stereo not drawn)
3. CN(C)/C=C/c1nnnn1-c1ccc(I)cc1
4. Fc1ccc(Nc2nnc(-c3ccccn3)s2)cc1

A:
24.2 µM
> 100 µM
56.4 µM
> 100 µM

Count: 8. Required value per item: TGI.
1. Cc1ccc(C2=C(c3ccccc3)C(Br)(c3ccccc3)C(c3ccccc3)=C2c2ccc(C)cc2)cc1
2. COc1cc(-c2oc(C=Nc3ccccc3)c([N+](=O)[O-])c2-c2ccc(O)c(OC)c2)ccc1O
3. CC12CC3CC(C1)CC(N=[N+]=[N-])(C3)C2
4. N#CN1CCC=C(c2cc3ccccc3[nH]2)C1
5. CC1=Nn2c(nnc2-c2ccc(N)cc2)NC(C)(C)C1
6. COc1cc(C(=O)CC2(O)C(=O)Nc3c(Cl)cc(Cl)cc32)ccc1O (stereo not drawn)
7. Clc1nc(Cl)c(Cc2ccccc2)c(Cl)n1
8. Cc1ccc(S(=O)(=O)NC2=NS(=O)(=O)c3cc(C)c(Cl)cc3S2)cc1

A:
> 100 µM
> 89.6 µM
> 100 µM
> 448 µM
> 100 µM
> 100 µM
38.2 µM
> 100 µM

Q: Can you look up the measured TGI of [O-]c1c[n+](CC[n+]2cc([O-])on2)no1 for me?
A: > 100 µM
